# self-splicing fitness (ln) per entry
experiment: self-splicing fitness, log relative to wild type (ln ratio); higher = more splicing; Tetrahymena group I intron in knt gene, E. coli kanamycin selection, DiMSum; sequences stand for … in CUCUCU…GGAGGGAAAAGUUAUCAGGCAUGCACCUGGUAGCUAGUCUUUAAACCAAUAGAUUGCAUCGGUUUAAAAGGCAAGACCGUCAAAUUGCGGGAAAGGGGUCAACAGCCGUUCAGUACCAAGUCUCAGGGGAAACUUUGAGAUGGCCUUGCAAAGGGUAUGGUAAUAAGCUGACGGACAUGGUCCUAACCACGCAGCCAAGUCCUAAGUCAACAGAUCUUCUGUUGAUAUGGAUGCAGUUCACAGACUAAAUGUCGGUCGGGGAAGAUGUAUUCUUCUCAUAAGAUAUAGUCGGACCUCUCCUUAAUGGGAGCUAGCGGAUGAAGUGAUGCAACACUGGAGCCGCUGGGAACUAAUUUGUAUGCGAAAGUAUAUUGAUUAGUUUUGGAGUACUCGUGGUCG; settings: 30 °C;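 further: selection with 25 µg/mL kanamycin versus none on LB agar overnight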
valueType: self-splicing fitness (ln)

1) CGCAAGCAAUAUUACGUGUA ... -2.88
2) UUGCAGCAAUAUUACGAGUG ... -1.61
3) GUCCAGCAAUAUUACGUUAU ... -0.827
4) GCUAAGCAAUAUUACGCUCA ... -1
5) GGGCAGCAAUAUUACGGAAC ... -1.22
6) AGGUAGCAAUAUUACGCUAC ... -3.78
7) CACAAGCAAUAUUACGCACU ... -2.4
8) CAUGAGCAAUAUUACGCAAG ... -3.15
9) UUACAGCAAUAUUACGCUUA ... -1.38
10) ACGAAGCAAUAUUACGUGGU ... -3.5
11) CCACAGCAAUAUUACGCCGA ... -3.67
12) UCACAGCAAUAUUACGCCAU ... -3.28
13) CCUCAGCAAUAUUACGAGCU ... -4.22
14) CCGUAGCAAUAUUACGCUCG ... -1.1
15) AGGUAGCAAUAUUACGCCGA ... -0.983
16) GUCUAGCAAUAUUACGGGAG ... -1.87

* * *

assay: self-splicing fitness, log relative to wild type (ln ratio); higher = more splicing; Tetrahymena group I intron in knt gene, E. coli kanamycin selection, DiMSum; sequences stand for … in CUCUCU…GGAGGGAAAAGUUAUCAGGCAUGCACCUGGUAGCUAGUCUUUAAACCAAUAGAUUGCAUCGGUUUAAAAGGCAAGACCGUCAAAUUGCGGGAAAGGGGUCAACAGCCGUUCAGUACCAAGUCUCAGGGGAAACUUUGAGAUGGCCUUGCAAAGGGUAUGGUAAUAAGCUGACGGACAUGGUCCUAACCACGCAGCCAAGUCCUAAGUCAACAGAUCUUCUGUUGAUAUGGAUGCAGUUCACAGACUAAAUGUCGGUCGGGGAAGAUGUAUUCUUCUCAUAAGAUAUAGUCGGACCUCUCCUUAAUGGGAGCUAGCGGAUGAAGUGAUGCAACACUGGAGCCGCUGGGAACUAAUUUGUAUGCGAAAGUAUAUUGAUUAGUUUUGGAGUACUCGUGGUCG; conditions: 37 °C
self-splicing fitness (ln) by entry:
valueType: self-splicing fitness (ln)

1) AGAUAGCAAUAUUACGCGAG ... -1.03
2) UGGUAGCAAUAUUACGAUGA ... -0.597
3) GGGAAGCAAUAUUACGAGUG ... -1.81
4) ACAUAGCAAUAUUACGCAAU ... -2.67
5) AAUUAGCAAUAUUACGUGCU ... -1.33
6) GCUCAGCAAUAUUACGGUUC ... 0.0632
7) GUAAAGCAAUAUUACGGACU ... -0.471
8) GUGCAGCAAUAUUACGUUGG ... -1.56
9) GUCUAGCAAUAUUACGUCGU ... 0.377
10) GACGAGCAAUAUUACGGGUA ... -2.94
11) ACACAGCAAUAUUACGCAGC ... -2.47
12) UUGCAGCAAUAUUACGGAAA ... -0.504
13) AAUCAGCAAUAUUACGAUGC ... 0.219
14) UACUAGCAAUAUUACGGAUG ... -0.112
15) ACACAGCAAUAUUACGUGGA ... -1.18
16) GCGAAGCAAUAUUACGGGUA ... -0.904

* * *

test: self-splicing fitness, log relative to wild type (ln ratio); higher = more splicing; Tetrahymena group I intron in knt gene, E. coli kanamycin selection, DiMSum; sequences stand for … in CUCUCU…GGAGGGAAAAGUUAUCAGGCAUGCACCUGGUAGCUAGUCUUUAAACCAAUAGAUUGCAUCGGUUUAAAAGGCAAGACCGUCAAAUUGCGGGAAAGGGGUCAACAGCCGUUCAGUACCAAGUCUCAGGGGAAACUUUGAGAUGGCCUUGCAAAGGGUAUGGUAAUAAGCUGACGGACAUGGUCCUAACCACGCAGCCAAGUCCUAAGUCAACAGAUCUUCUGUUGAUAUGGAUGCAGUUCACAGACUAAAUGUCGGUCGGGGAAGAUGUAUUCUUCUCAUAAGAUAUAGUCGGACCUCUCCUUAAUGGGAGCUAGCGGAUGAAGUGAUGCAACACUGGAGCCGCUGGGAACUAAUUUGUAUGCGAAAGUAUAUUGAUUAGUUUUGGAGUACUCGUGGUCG; conditions: 37 °C
In this section we review reported self-splicing fitness (ln) values for a set of sequences.
valueType: self-splicing fitness (ln)

1. CGGGAGCAAUAUUACGAGAG ... -3.18
2. CCCAAGCAAUAUUACGAUUG ... -2.78
3. CGCAAGCAAUAUUACGGCAG ... -0.305
4. ACAGAGCAAUAUUACGCCAC ... -1.33
5. UGCCAGCAAUAUUACGUCUC ... -2.11
6. GCCCAGCAAUAUUACGAUAC ... -0.313
7. CUCUAGCAAUAUUACGUCGG ... -1.57
8. AAAUAGCAAUAUUACGUAUA ... -0.558
9. CCGGAGCAAUAUUACGGACC ... -1.64
10. GCUAAGCAAUAUUACGGACG ... -0.51
11. GUUUAGCAAUAUUACGUAGG ... -0.822
12. UCCAAGCAAUAUUACGAUAG ... -2.98
13. UUCGAGCAAUAUUACGGUAG ... -0.753
14. GAACAGCAAUAUUACGGAAC ... -1.55
15. CAAAAGCAAUAUUACGUACC ... -1.33
16. CGACAGCAAUAUUACGAAUG ... -0.112

* * *

experiment: self-splicing fitness, log relative to wild type (ln ratio); higher = more splicing; Tetrahymena group I intron in knt gene, E. coli kanamycin selection, DiMSum; sequences stand for … in CUCUCU…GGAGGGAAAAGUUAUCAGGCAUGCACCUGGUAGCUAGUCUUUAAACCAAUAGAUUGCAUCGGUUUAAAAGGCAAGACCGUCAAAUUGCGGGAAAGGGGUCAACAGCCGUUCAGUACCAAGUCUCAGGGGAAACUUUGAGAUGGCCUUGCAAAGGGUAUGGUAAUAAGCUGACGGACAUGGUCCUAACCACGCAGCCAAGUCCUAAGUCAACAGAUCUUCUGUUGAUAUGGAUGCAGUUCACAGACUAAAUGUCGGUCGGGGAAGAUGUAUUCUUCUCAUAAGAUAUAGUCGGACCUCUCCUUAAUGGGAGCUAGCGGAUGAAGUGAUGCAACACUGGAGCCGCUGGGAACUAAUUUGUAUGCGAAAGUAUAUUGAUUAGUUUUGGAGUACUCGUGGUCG; conditions: 37 °C
Note to self: values exactly at -0.4 are rule met. So self-splicing fitness (ln) at or above -0.4 is rule met, below is rule not met.

1. GAUCAGCAAUAUUACGCGUA ... rule met
2. CGCUAGCAAUAUUACGUGAG ... rule not met
3. CACCAGCAAUAUUACGCUCA ... rule not met
4. GGAAAGCAAUAUUACGGCUA ... rule not met
5. CGCAAGCAAUAUUACGUGAU ... rule not met
6. UUCAAGCAAUAUUACGGGGC ... rule not met
7. UAGGAGCAAUAUUACGGAUU ... rule not met
8. CAAAAGCAAUAUUACGAUUA ... rule met
9. AUCAAGCAAUAUUACGAUUA ... rule not met
10. AGGUAGCAAUAUUACGAUCG ... rule met
11. GCACAGCAAUAUUACGAUUG ... rule not met
12. UUCGAGCAAUAUUACGCGCA ... rule met
13. AUUAAGCAAUAUUACGUACA ... rule met
14. AUGCAGCAAUAUUACGCAGU ... rule not met
15. UUCGAGCAAUAUUACGGCUU ... rule not met

Value source: the supplement of paper PMC7877785
